ASSAY_INFO: In vivo biodistribution method
Set-up: species or system Adult male Wistar rats
EXPERIMENTAL_CONDITIONS: brain, 2 min after injection via lateral tail vein, 1-3 MBq, n=3
Hi, to clarify the labels: label 1 covers Brain 2 min (% ID/g) from 0.5 % ID/g upward, label 0 covers anything below 0.5 % ID/g.

INSERT INTO assay_data (molecule, class_assignment) VALUES
  ('CCN(CC)C(=O)C1CCCc2c1c1cc(F)ccc1n2CC[18F] (centres unmarked)', 'label 1'),
  ('CCN(CC)C(=O)C1Sc2ccccc2-c2c1c1cc(OC)ccc1n2CC[18F] (racemic) [tetracyclic indole, reference compound]', 'label 0');

Switching to the query record.
Problem: Textbook exercise: given the entry CN(Cc1ccccc1)C(=O)C1CCCc2c1c1ccccc1n2CC[18F] (centres unmarked) , state whether its Brain 2 min (% ID/g) is greater than or equal to 0.5 % ID/g.
Solution: label 1
